Cited source for all entries: ChEMBL document CHEMBL4808148

Target: Protein deacetylase HDAC6 (Homo sapiens) (UniProt Q9UBN7)
Sequence (whole entry): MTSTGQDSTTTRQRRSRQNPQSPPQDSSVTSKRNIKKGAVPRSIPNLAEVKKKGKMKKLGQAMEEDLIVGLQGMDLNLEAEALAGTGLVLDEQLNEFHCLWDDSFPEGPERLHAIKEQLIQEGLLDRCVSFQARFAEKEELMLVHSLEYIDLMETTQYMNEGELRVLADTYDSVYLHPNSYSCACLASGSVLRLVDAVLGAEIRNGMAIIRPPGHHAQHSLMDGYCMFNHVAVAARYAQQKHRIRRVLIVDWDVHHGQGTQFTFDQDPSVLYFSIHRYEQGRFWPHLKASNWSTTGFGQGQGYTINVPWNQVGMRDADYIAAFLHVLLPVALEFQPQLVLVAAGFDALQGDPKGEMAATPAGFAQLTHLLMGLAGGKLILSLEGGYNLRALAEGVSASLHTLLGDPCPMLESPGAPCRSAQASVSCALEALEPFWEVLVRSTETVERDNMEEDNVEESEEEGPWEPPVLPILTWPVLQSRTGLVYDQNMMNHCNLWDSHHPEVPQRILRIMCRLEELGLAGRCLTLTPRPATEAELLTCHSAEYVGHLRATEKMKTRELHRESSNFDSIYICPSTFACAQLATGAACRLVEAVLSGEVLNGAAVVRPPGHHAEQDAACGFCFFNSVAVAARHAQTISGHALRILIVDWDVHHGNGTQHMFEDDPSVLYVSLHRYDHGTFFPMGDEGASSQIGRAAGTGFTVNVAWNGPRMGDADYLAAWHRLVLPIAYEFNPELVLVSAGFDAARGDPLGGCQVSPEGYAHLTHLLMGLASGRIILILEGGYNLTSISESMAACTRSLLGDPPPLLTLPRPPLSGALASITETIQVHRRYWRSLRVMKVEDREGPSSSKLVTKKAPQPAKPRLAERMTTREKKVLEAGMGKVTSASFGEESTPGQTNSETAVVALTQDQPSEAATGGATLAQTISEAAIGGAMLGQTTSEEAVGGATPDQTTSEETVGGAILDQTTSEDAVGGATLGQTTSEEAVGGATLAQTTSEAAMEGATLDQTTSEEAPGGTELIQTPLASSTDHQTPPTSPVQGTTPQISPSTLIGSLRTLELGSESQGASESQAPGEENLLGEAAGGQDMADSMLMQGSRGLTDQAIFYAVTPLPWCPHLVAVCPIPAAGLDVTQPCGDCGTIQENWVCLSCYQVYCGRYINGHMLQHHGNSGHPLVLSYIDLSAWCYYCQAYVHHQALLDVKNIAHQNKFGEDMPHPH
Settings: at 10 µM
Among all 5,600 compounds or so, about 150 (2.7%) showed an effect of 50% or more. What follows is part of a selection rich in strong results, with near analogues and random picks from the rest.
Form field: inhibition (one value per entry).
Give the value, in units of %, as a plain number.

// worked examples, inhibition included
compound	readout.type	numeric.readout
O=C(/C=C/C=C/c1ccc2c(c1)OCO2)N1CCCCC1	inhibition	61.2
O=C(Nc1c(-c2cccs2)nc2ccccn12)c1ccc(Cl)cc1	inhibition	-6.19
O=C(CCCCCN1C(=O)c2cccc3cccc(c23)C1=O)NO	inhibition	98.7
Cc1ccc(S(=O)(=O)OCC(=O)Nc2ccc(C(=O)O)c(O)c2)cc1	inhibition	-5.6
Cn1cc(/C=C2/C(=O)Nc3cccnc32)c2ccccc21	inhibition	66.2

Enquiry: Report inhibition for Cc1noc(C)c1-c1cc(O)cc(C(O)c2ccccc2)c1 (stereo not drawn) please.
Return: 2.55

Enquiry: Report inhibition for `O=C(O)/C=C/c1ccc(O)c(O)c1` please.
Return: -0.33

Enquiry: Report inhibition for `O=C(Nc1cccc2c(=O)cc(-c3nnn[nH]3)oc12)c1ccc(OCCCCc2ccccc2)cc1` please.
Return: 2.83

Enquiry: Report inhibition for `Cn1cc(C2=C(c3cn(CCCSC(=N)N)c4ccccc34)C(=O)NC2=O)c2ccccc21` please.
Return: -0.14

Enquiry: Report inhibition for `Cc1cc(C)cc(NC(=O)Nc2ccc(OS(N)(=O)=O)cc2)c1` please.
Return: 76.1

Enquiry: Report inhibition for `O=C(Nc1ccc(C(=O)O)c(O)c1)c1ccccc1` please.
Return: 95.5

Enquiry: Report inhibition for `O=C(/C=C/c1ccc(O)c(O)c1)O[C@H](Cc1ccc(O)c(O)c1)C(=O)O` please.
Return: 3.24

Enquiry: Report inhibition for `CC1(C)Oc2ccc(C#N)cc2[C@H](N(Cc2ncc[nH]2)c2ccc(Cl)cc2)[C@H]1O` please.
Return: 5.57
